Data origin: patent US20230113802A1

Each entry below carries its recorded concentration at 1 h.
# measurement_description: GT localization in healthy versus 4T1 tumor bearing lung tissue
# Type: in vivo, BALB/c mice
# condition_description: female, BALB/c, mouse, plasma, intravenous, 1 hour after control (CrEL), Healthy mice; read-out: Plasma
# Procedure: Female BALB/c mice were injected with 2×10^5 4 T1 metastatic breast cancer cells that express luciferase as a marker intravenously by tail vein on day 0. Stable expression of luciferase in these cells allows for bioluminescent monitoring of tumor growth and metastasis. Over a 14-day period, mouse behavior and health conditions were monitored daily and body weight measurements were taken every 2 days. […]
Answer format: numeric, ng/mL implied, no suffix.

CC(=O)O[C@H]1C(=O)[C@@]2(C)[C@H]([C@H](OC(=O)c3ccccc3)[C@]3(O)C[C@H](OC(=O)[C@H](O)[C@@H](NC(=O)c4ccccc4)c4ccccc4)C(C)=C1C3(C)C)[C@]1(OC(C)=O)CO[C@@H]1C[C@@H]2O ... 300

Next, consider the following compound.
Lookup: Requested field: concentration at 1 h. Item: `Nc1ccn([C@@H]2O[C@H](CO)[C@@H](O)C2(F)F)c(=O)n1`
Found: 900
